- Experimental Protocol: LDH cytotoxic activity assay, Hep3B
- Format: cell-based
- Study Conditions: human, Hep3B cells, 25 μg/mL
Metric: cytotoxicity at 24 h, 25 μg/mL (%)

>>> print(df.to_string())
                                   compound                          metric  reading_unit  reading
0  Cc1ccc(-c2cc(-c3ccccn3)nc(N[C@@H]3O[C@H](CO)[C@@H](O)[C@H](O)[C@H]3O)n2)cc1  cytotoxicity at 24 h, 25 μg/mL             %     9.37
1  Cc1cccc(-c2cc(-c3cccnc3)nc(N[C@@H]3O[C@H](CO)[C@@H](O)[C@H](O)[C@H]3O)n2)c1  cytotoxicity at 24 h, 25 μg/mL             %     14.1
2  Cc1cccc(-c2cc(-c3ccccn3)nc(N[C@@H]3O[C@H](CO)[C@@H](O)[C@H](O)[C@H]3O)n2)c1  cytotoxicity at 24 h, 25 μg/mL             %     19.6
3  Cc1cccc(-c2cc(-c3ccncc3)nc(N[C@@H]3O[C@H](CO)[C@@H](O)[C@H](O)[C@H]3O)n2)c1  cytotoxicity at 24 h, 25 μg/mL             %       10
4  Cc1ccc(-c2cc(-c3cccnc3)nc(N[C@@H]3O[C@H](CO)[C@@H](O)[C@H](O)[C@H]3O)n2)cc1  cytotoxicity at 24 h, 25 μg/mL             %     15.6
5  O=c1[nH]cc(F)c(=O)[nH]1 [Compound 5FU, 5-fluorouracil, reference compound]  cytotoxicity at 24 h, 25 μg/mL             %     9.67
6  Cc1ccc(-c2cc(-c3ccncc3)nc(N[C@@H]3O[C@H](CO)[C@@H](O)[C@H](O)[C@H]3O)n2)cc1  cytotoxicity at 24 h, 25 μg/mL             %     16.5

====

- Experimental Protocol: LDH cytotoxic activity assay, HeLa
- Type: cell-based
- Study Conditions: human, HeLa cells, 25 μg/mL
Simple rule here: cytotoxicity at 24 h, 25 μg/mL less than 20% is rule met, otherwise rule not met.

                                 cpd_smiles         class
0  Cc1ccccc1-c1cc(-c2ccncc2)nc(N[C@@H]2O[C@H](CO)[C@@H](O)[C@H](O)[C@H]2O)n1      rule met
1  Cc1cccc(-c2cc(-c3ccccn3)nc(N[C@@H]3O[C@H](CO)[C@@H](O)[C@H](O)[C@H]3O)n2)c1  rule not met
2  Cc1ccccc1-c1cc(-c2cccnc2)nc(N[C@@H]2O[C@H](CO)[C@@H](O)[C@H](O)[C@H]2O)n1  rule not met
3  CC(=O)OC[C@H]1O[C@@H](Nc2nc(-c3ccncc3)cc(-c3ccccc3C)n2)[C@H](OC(C)=O)[C@@H](OC(C)=O)[C@@H]1OC(C)=O      rule met
4  CC(=O)OC[C@H]1O[C@@H](Nc2nc(-c3ccncc3)cc(-c3cccc(C)c3)n2)[C@H](OC(C)=O)[C@@H](OC(C)=O)[C@@H]1OC(C)=O      rule met
5  CC(=O)OC[C@H]1O[C@@H](Nc2nc(-c3ccc(C)cc3)cc(-c3ccccn3)n2)[C@H](OC(C)=O)[C@@H](OC(C)=O)[C@@H]1OC(C)=O  rule not met
6  CC(=O)OC[C@H]1O[C@@H](Nc2nc(-c3ccccn3)cc(-c3ccccc3C)n2)[C@H](OC(C)=O)[C@@H](OC(C)=O)[C@@H]1OC(C)=O      rule met
